- Tested on: oriental house flies
- experimentNotes: Potentiation of insecticidal activity by addition of piperonyl butoxide, topical application (Experimental Example 6)
- Format: in vivo
- conditionDetails: piperonyl butoxide 5 times active ingredient; acetone solution on thoracic dorsal plate
Param threshold (5) applies to Potentiation magnification of insecticidal activity by the addition of piperonyl butoxide; output yes when value >= threshold, no when value < threshold.

>>> df
                                   compound  assignedcategory
0  COc1ccc(C(C(=O)OCc2ccc(Cc3ccccc3)s2)C(C)C)cc1 (stereo not shown) [compound 86]                no

Input line: Potentiation magnification of insecticidal activity by the addition of piperonyl butoxide >= 5 for COc1ccc(C(C(=O)OCc2cccc(Oc3ccccc3)c2)C(C)C)cc1 (stereo not shown) [compound 62] ?
Output line: yes

Input line: Potentiation magnification of insecticidal activity by the addition of piperonyl butoxide >= 5 for C#CCc1ccc(C(C#C)OC(=O)C(c2ccc(C)cc2)C(C)C)o1 (stereo not shown) [compound 160] ?
Output line: yes

Input line: Potentiation magnification of insecticidal activity by the addition of piperonyl butoxide >= 5 for C=C(C)C(C(=O)OCc1cccc(Oc2ccccc2)c1)c1ccc(Cl)cc1 (stereo not shown) [compound 119] ?
Output line: yes

Input line: Potentiation magnification of insecticidal activity by the addition of piperonyl butoxide >= 5 for C#CCc1ccc(C(C#C)OC(=O)C(c2ccc(C)cc2)C(C)C)o1 (stereo not shown) [compound 200] ?
Output line: yes

Input line: Potentiation magnification of insecticidal activity by the addition of piperonyl butoxide >= 5 for C#CCc1ccc(C(C#C)OC(=O)C(c2ccc(OC)cc2)C(C)C)o1 (stereo not shown) [compound 51] ?
Output line: yes

Input line: Potentiation magnification of insecticidal activity by the addition of piperonyl butoxide >= 5 for CCC(C(=O)OC1C=C(Cc2ccccc2)C(=O)C1)c1ccc(F)cc1 (stereo not shown) [compound 191] ?
Output line: no
